Assay target: T1, CD73 on the surface of human cells (human, UniProt P21589 27-549)
T1 construct: whole, on cells; The cell line of each value is named under assay or readout; also called CD73 on the surface of tumor cells; CD73 enzyme on the surface of MDA-MB-231 cells
T1 sequence (looked up): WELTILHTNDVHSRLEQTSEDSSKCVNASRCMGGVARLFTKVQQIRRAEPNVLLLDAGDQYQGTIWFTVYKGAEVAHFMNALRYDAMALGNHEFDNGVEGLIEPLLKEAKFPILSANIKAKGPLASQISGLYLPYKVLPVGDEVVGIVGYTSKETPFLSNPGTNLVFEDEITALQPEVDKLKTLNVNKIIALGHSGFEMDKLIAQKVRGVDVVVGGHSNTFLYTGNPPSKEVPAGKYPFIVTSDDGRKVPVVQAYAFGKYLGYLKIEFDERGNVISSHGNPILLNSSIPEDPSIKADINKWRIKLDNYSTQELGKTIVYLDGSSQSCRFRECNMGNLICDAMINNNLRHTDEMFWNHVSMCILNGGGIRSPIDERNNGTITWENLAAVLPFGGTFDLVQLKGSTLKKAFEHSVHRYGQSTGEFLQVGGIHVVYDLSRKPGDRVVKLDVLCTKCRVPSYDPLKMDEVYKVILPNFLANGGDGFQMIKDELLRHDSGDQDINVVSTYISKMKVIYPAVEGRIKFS
Protocol details: flow cytometry on PC9 cells
Readout label: EC50 (µg/mL)

Binder	Val
chimeric nanobody 4-B02 (Fc fusion, Human-alpaca chimeric antibody) VHH: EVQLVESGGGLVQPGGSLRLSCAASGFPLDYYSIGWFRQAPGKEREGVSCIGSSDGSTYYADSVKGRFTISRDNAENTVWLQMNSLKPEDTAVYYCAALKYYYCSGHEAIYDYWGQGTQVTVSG	0.044
chimeric nanobody 5-E11 (Fc fusion, Human-alpaca chimeric antibody (VHH on hIgG1 Fc); Only the VHH is tied to the tested molecule; also called original antibody 5-E11) VHH: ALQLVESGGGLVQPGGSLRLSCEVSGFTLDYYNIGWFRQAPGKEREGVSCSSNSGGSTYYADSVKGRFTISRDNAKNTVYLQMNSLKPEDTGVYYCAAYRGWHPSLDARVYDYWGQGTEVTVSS	0.041
chimeric nanobody 3-D7 (Fc fusion, Human-alpaca chimeric antibody (VHH on hIgG1 Fc); Only the VHH is tied to the tested molecule; 37-39 exist for 3-D7-FC1/FC2/FC3; also called original antibody 3-D7) VHH: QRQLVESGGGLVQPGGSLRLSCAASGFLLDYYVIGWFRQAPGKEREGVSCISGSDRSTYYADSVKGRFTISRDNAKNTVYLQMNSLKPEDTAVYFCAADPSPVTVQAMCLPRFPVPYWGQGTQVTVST	0.133
chimeric nanobody 4-D04 (Fc fusion, Human-alpaca chimeric antibody) VHH: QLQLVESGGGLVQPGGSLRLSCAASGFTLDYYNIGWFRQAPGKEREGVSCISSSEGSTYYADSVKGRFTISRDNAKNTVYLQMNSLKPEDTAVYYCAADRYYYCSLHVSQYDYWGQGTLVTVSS	0.057
